We begin with a simple list: items and their reported minimal effective concentration.
- Tested on: recombinant guanylate cyclase reporter cell line
- Experimental protocol: Action at recombinant guanylate cyclase reporter cell line (CHO reporter cell)
- Assay type: cell-based
- Run parameters: MEC = minimal effective concentration; read-out: sGC-activating activity in the CHO reporter cell in vitro, MEC
Reply with just the number (in µM).

Field minimal effective concentration (recombinant guanylate cyclase reporter cell line), entry CC(C(=O)O)C(C)c1ccc(F)c(NC(=O)[C@H](c2ccc(Cl)cc2)[C@@H](C)C(F)(F)F)c1 (stereo partly shown) [Example 50] : 0.03

Per the reported recombinant guanylate cyclase reporter cell line data, C[C@H]([C@H](C(=O)Nc1cc(CCC(=O)O)ccc1Cl)c1ccc(Cl)cc1)C(F)(F)F [Example 15] has minimal effective concentration of 0.01

Tested system recombinant guanylate cyclase reporter cell line; minimal effective concentration recorded for CCc1ccc([C@@H](C(=O)Nc2cc(C(C)CC(=O)O)ccc2Cl)[C@@H](C)C(F)(F)F)cc1 (stereo partly shown) [Example 7] was 0.0002

* * *

- Target of assay: soluble guanylate cyclase (sGC) (Rattus norvegicus, UniProt P20595)
- Sequence (P20595 whole entry): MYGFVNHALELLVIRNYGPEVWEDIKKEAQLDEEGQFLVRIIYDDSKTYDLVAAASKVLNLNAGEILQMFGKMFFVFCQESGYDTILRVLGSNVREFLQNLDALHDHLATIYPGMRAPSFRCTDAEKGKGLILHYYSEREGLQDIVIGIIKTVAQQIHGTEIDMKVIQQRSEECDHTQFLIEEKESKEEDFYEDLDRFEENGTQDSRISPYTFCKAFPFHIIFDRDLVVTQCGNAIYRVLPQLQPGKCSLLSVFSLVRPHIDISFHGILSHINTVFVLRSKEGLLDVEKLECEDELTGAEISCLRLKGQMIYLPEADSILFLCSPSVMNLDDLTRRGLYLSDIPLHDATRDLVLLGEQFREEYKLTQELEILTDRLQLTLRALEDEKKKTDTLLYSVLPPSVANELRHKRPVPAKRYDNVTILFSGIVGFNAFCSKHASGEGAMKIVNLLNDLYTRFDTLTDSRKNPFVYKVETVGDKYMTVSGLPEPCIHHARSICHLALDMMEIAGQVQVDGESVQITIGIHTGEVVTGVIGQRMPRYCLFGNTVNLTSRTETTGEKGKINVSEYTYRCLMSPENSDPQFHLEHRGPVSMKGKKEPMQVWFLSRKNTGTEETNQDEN
- Sequence (P19686 whole entry partner): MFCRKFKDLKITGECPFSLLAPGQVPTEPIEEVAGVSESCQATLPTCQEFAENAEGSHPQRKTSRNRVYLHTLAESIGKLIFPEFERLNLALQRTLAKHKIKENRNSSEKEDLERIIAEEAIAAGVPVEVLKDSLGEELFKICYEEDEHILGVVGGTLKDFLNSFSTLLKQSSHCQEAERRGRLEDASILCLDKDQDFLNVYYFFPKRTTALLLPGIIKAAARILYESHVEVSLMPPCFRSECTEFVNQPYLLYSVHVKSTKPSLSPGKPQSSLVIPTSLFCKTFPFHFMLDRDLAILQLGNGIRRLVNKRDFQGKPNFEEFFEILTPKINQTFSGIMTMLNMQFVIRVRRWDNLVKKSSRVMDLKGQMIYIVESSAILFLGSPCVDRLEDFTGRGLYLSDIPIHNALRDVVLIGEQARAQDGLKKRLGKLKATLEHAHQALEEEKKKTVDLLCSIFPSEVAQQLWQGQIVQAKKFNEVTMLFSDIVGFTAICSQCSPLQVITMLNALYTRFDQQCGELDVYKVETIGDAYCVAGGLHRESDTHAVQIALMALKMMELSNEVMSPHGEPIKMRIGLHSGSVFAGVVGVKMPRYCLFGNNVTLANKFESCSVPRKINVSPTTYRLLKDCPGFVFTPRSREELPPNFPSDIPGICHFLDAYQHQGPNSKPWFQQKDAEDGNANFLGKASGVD
- Experimental protocol: Stimulation of sGC enzyme activity (PPi detection, luciferase luminescence)
- Run parameters: EC50 = concentration at 50% of maximum efficacy; read-out: Activating action at the sGC enzyme in vitro, EC50
Quantity name: EC50 (µM)
Return type: number; implicit unit µM.

1. C[C@H]([C@H](C(=O)Nc1cc(C[C@H](C)C(=O)O)ccc1Cl)c1ccc(Cl)cc1)C(F)(F)F [Example 17] = 0.13

Next compound, EC50 to be filled in.
Summary for this compound, C[C@H]([C@H](C(=O)Nc1cc(CCC(=O)O)ccc1Cl)c1ccc(Cl)cc1)C(F)(F)F [Example 15] : EC50 is 0.29

* * *

- System: recombinant guanylate cyclase reporter cell line
- Experimental protocol: Action at recombinant guanylate cyclase reporter cell line (CHO reporter cell)
- Type: cell-based
- Run parameters: MEC = minimal effective concentration; read-out: sGC-activating activity in the CHO reporter cell in vitro, MEC
Quantity name: minimal effective concentration

Some entries whose results are on file:
1) CCCC(CC(=O)O)c1ccc(Cl)c(NC(=O)[C@H](c2ccc(Cl)cc2)[C@@H](C)C(F)(F)F)c1 (stereo partly shown) [Example 81] = 0.0003 µM
2) CCC(C)(Cc1ccc(Cl)c(NC(=O)[C@H](c2ccc(Cl)cc2)[C@@H](C)C(F)(F)F)c1)C(=O)O (single isomer, unassigned; (+)) [Example 71] = 0.01 µM
3) C[C@@H](CC(=O)O)c1ccc(Cl)c(NC(=O)C(c2ccc(Cl)cc2)C2CCCC2(F)F)c1 (stereo partly shown) [Example 10] = 0.0052 µM

Proceed to the following item.
Looking up CCC[C@@H](CC(=O)O)c1ccc(Cl)c(NC(=O)[C@H](c2ccc(Cl)cc2)[C@@H](C)C(F)(F)F)c1 (single isomer, unassigned) [Example 82] , I found its minimal effective concentration recorded as 0.00023 µM

* * *

- Test system: recombinant guanylate cyclase reporter cell line
- Experimental protocol: Action at recombinant guanylate cyclase reporter cell line (CHO reporter cell)
- Assay type: cell-based
- Run parameters: MEC = minimal effective concentration; read-out: sGC-activating activity in the CHO reporter cell in vitro, MEC
- Protocol: The cellular action of the compounds according to the invention is determined at a recombinant guanylate cyclase reporter cell line, as described in F. Wunder et al., Anal. Biochem. 339, 104-112 (2005).
// minimal effective concentration lookup, one value per entry
Please respond with the number in µM and leave the unit unwritten.

1) CC[C@@H](CC(=O)O)c1ccc(Cl)c(NC(=O)[C@H](c2ccc(Cl)cc2)[C@@H](C)C(F)(F)F)c1 (single isomer, unassigned) = 0.001
2) C[C@H]([C@H](C(=O)Nc1cc(CC(C)(C)C(=O)O)ccc1Cl)c1ccc(Cl)cc1)C(F)(F)F = 0.003
3) C[C@H]([C@H](C(=O)Nc1cc(C2(CC(=O)O)CC(F)(F)C2)ccc1Cl)c1ccc(Cl)cc1)C(F)(F)F = 0.001
4) C[C@H]([C@H](C(=O)Nc1cc(C[C@H](C)C(=O)O)ccc1Cl)c1ccc(Cl)cc1)C(F)(F)F = 0.0048
5) C[C@H]([C@H](C(=O)Nc1cc(CCC(=O)O)ccc1Cl)c1ccc(CC(F)(F)F)cc1)C(F)(F)F (racemic) = 0.003

Shift focus to the following entry.
For this compound ( CC(C(C(=O)Nc1cc(C[C@H](C)C(=O)O)ccc1Cl)c1ccc(CC(F)(F)F)cc1)C(F)(F)F (stereo partly drawn) ), measured minimal effective concentration is 0.01
